- PROTOCOL: yeast display, Sf9 membrane polyspecificity reagent, FACS + sequencing; frameworks hold sequencing errors
OUTCOME_MEASURE: polyreactivity (PSR sort gate)

Worked set:
QVQLVESGGGLVQAGGSLRLSCAASGRTFGYYAMGWYRQAPGKERELVAAISWRGGSTYYADSVKGRFTISRDNAKNTVYLQMNSLKPEDTAVYYCNRAYVYPQGPYPYDYWGQGTQVTVSS ... high polyreactivity
QVQLVESGGGSVQAGGRLRLSCAASGLIFAGYARGWYRQSPGKERELVAASSTSGGRTYYADSVKGRFTISRDNAKNTVYLQINSLTPEDTAVYYCAAYPVHGKTQELAKEDYWGQGTQVTVSS ... high polyreactivity
QVQLVESGGGLVQAGGSLRLSCAASGNIFSFNDMGWYRQAPGKERELVAAITSSDSTNYADSVKGRFTISRDNAKNTVYLQMNSLKPEDTAVFYCATEILTAARDTVVYQFYLGYYYWGQGTQVTVSS ... low polyreactivity
QVQLVESGGGLVQAGGSLRLSCAASGRTFTKYAMGWDRQAPGKERELVAVISVIGGTNYADSVKWRFTISRDNAKNTVYLQMNSLKPEDTAVYYCAAVSREHDYWGQGTQVTVSS ... high polyreactivity

Sample `QVQLVESGGGLVQAGVSLRLSCAASGFTFWRNAMGWYRQAPGKERELVAAISASGGSTYYADSVKGRFTISRDNAKNTVYLQMNSLKPEDTAVYYCAADTQGFYRYDYWGQGTQVTVSS` ; polyreactivity (PSR sort gate) observed: low polyreactivity
